Experiment: in vitro
Details: human, hela cells, % viability
Note to self: viability at 28.5 h, 10 µM under 90% means T, ties and anything higher get F.

Prompt: Given CCC(NC(=O)Cc1c(C)nc(SC)[nH]c1=O)c1ccc(F)cc1 (centres unmarked) [CBK282653] , is recorded viability at 28.5 h, 10 µM strictly lower than 90%?
Completion: T

Prompt: Given Cn1c(Cc2cccc3ccccc23)nnc1SCC(=O)Nc1ccccc1F [CBK265856] , is recorded viability at 28.5 h, 10 µM strictly lower than 90%?
Completion: T

Prompt: Given O=C(Cn1cnc2sc(-c3ccccc3)cc2c1=O)c1ccc2c(c1)OCO2 [CBK297102] , is recorded viability at 28.5 h, 10 µM strictly lower than 90%?
Completion: T

Prompt: Given c1cncc(-c2nccnc2N2CCN(c3ccncc3)CC2)c1 [CBK036965] , is recorded viability at 28.5 h, 10 µM strictly lower than 90%?
Completion: T

Prompt: Given O=S(=O)(Nc1nnn[nH]1)c1cccc2nsnc12 [CBK062379] , is recorded viability at 28.5 h, 10 µM strictly lower than 90%?
Completion: F

Prompt: Given Cc1ccc(-c2c[nH]c([C@@H]3COCCN3Cc3c[nH]c4ccccc34)n2)cc1 [CBK289308] , is recorded viability at 28.5 h, 10 µM strictly lower than 90%?
Completion: F

Prompt: Given CC(C)Cc1cc(CNC(=O)Nc2cc(-c3cccnc3)nn2C)no1 [CBK307048] , is recorded viability at 28.5 h, 10 µM strictly lower than 90%?
Completion: T

Prompt: Given CC(C)[C@@H](CO)Nc1nc(-c2ccc3ccccc3c2)cn2ccnc12 [CBK037445] , is recorded viability at 28.5 h, 10 µM strictly lower than 90%?
Completion: T

Prompt: Given Cc1c(CC(=O)O)c(=O)oc2cc(OCc3ccc(F)cc3)ccc12 [CBK286674] , is recorded viability at 28.5 h, 10 µM strictly lower than 90%?
Completion: F

Prompt: Given CCNc1cc(-c2ccc(CC(C)C)cc2)ncn1 [CBK090884] , is recorded viability at 28.5 h, 10 µM strictly lower than 90%?
Completion: F

Prompt: Given COc1ccc2c(c1)c(=O)oc1cc(OCC(=O)N3CCc4ccccc4C3)ccc12 [CBK266346] , is recorded viability at 28.5 h, 10 µM strictly lower than 90%?
Completion: F

Prompt: Given CCn1cc(C(=O)N2CCCC2c2nccs2)c(=O)c2ccc(C)nc21 (centres unmarked) [CBK307171] , is recorded viability at 28.5 h, 10 µM strictly lower than 90%?
Completion: T

Prompt: Given Cn1c(=O)c(C(=O)Nc2ccc(Cl)cc2)cc2cccnc21 [CBK287741] , is recorded viability at 28.5 h, 10 µM strictly lower than 90%?
Completion: F

Prompt: Given O=C1c2ccc(-c3nc4ccc(Cl)cc4c(=O)o3)cc2C(=O)N1Cc1cccnc1 [CBK268460] , is recorded viability at 28.5 h, 10 µM strictly lower than 90%?
Completion: F

Prompt: Given CC(=O)Nc1ccc(CNC(=O)c2cc(C)n(CC(F)(F)F)c2C)cc1 [CBK304523] , is recorded viability at 28.5 h, 10 µM strictly lower than 90%?
Completion: T

Prompt: Given COc1cncc(-c2cnc(N)c(NCc3cccnc3)n2)c1 [CBK063531] , is recorded viability at 28.5 h, 10 µM strictly lower than 90%?
Completion: F

Prompt: Given NC(=O)c1cccc(CNC2CCCN(c3cccnn3)C2)c1 (centres unmarked) [CBK305115] , is recorded viability at 28.5 h, 10 µM strictly lower than 90%?
Completion: F

Prompt: Given O=C(O)c1ccc(S(=O)(=O)c2ccc3c(c2)C(=O)N(c2ccccc2-c2ccccc2)C3=O)cc1 [CBK262760] , is recorded viability at 28.5 h, 10 µM strictly lower than 90%?
Completion: F

Prompt: Given CCOC(=O)N/N=C1\CCSc2sccc21 [CBK006300] , is recorded viability at 28.5 h, 10 µM strictly lower than 90%?
Completion: F

Prompt: Given CCOC(=O)C1=C(C)NC(=O)NC1c1ccc(-c2ccccc2F)o1 (centres unmarked) [CBK263867] , is recorded viability at 28.5 h, 10 µM strictly lower than 90%?
Completion: F

Prompt: Given CC(C)Cc1cnc2c(c1SCc1ccc(F)cc1)c(=O)n(C)c(=O)n2C [CBK294409] , is recorded viability at 28.5 h, 10 µM strictly lower than 90%?
Completion: F

Prompt: Given CC(C)Nc1nccnc1OCCOc1cccc(O)c1 [CBK115878] , is recorded viability at 28.5 h, 10 µM strictly lower than 90%?
Completion: F

Prompt: Given Cc1nn(C)c(C)c1CCC(=O)NCC1CCN(c2ccccc2F)C1 (centres unmarked) [CBK304357] , is recorded viability at 28.5 h, 10 µM strictly lower than 90%?
Completion: F

Prompt: Given Cc1ccccc1C(=O)Nc1cccc(NC(=O)c2ccc(-c3cc4ccccc4oc3=O)cc2)c1 [CBK267256] , is recorded viability at 28.5 h, 10 µM strictly lower than 90%?
Completion: F

Prompt: Given O=C(O)c1sc2ncccc2c1NS(=O)(=O)c1ccc(C(F)(F)F)cc1[N+](=O)[O-] [CBK050647] , is recorded viability at 28.5 h, 10 µM strictly lower than 90%?
Completion: F

Prompt: Given CC(=O)N1CC2(CCCC2)c2c(F)cccc21 [CBK306339] , is recorded viability at 28.5 h, 10 µM strictly lower than 90%?
Completion: T

Prompt: Given CCn1nc(C)c(-c2cncn2CCCC(C)(C)CO)c1C [CBK281807] , is recorded viability at 28.5 h, 10 µM strictly lower than 90%?
Completion: T

Prompt: Given C#CCNC(=O)[C@H]1O[C@H](CCN2CCOCC2)CC[C@@H]1O [CBK288729] , is recorded viability at 28.5 h, 10 µM strictly lower than 90%?
Completion: F

Prompt: Given Cc1csc(C(C)NC(=O)c2cccnc2NCc2ccc3c(c2)OCO3)n1 (centres unmarked) [CBK153425] , is recorded viability at 28.5 h, 10 µM strictly lower than 90%?
Completion: F

Prompt: Given CNC(=S)N1CCN(c2nccnc2NS(=O)(=O)Cc2ccccc2)CC1 [CBK049044] , is recorded viability at 28.5 h, 10 µM strictly lower than 90%?
Completion: F

Prompt: Given Cc1nnc(S)n(Cc2ccc(F)cc2)c1=O [CBK288502] , is recorded viability at 28.5 h, 10 µM strictly lower than 90%?
Completion: F

Prompt: Given CCCC(=O)c1ccc(S(=O)(=O)N2CCN(Cc3ccc(C(C)=O)cc3)CC2)cc1 [CBK063159] , is recorded viability at 28.5 h, 10 µM strictly lower than 90%?
Completion: F

Prompt: Given Cn1nc(-c2ccc(S(=O)(=O)Nc3ccc4cn[nH]c4c3)s2)cc1C(F)(F)F [CBK067156] , is recorded viability at 28.5 h, 10 µM strictly lower than 90%?
Completion: F
